Tested on: MCF-7
Experiment: CellTiter-Glo cell viability, MCF-7
Format: cell-based
Conditions: Homo sapiens, MCF7; MCF-7 cells, 72 h with compound
assay metric: pIC50
On this scale, pIC50 is minus log10 of a concentration expressed in M (mol/L).

*Q* I'd like to know its pIC50. The compound in question is `COc1ccc2c(=O)c(-c3ccc(CCCC[P+](c4ccccc4)(c4ccccc4)c4ccccc4)cc3)coc2c1OC.[Br-]`
*A* 7.68

*Q* I'd like to know its pIC50. The compound in question is `COc1c(O)ccc2c(=O)c(-c3ccc(CCCC[P+](c4ccccc4)(c4ccccc4)c4ccccc4)cc3)coc12`
*A* 6.00

* * *

Biological target: Toll-like Receptor (TLR4)
Test: SelectScreen CellSensor pathway inhibition, Toll-like Receptor (TLR4)
Assay type: cell-based
Conditions: NFkB-bla THP-1, stimulus LPS
assay metric: pIC50
On this scale, pIC50 is minus log10 of a concentration expressed in M (mol/L).

*Q* I'd like to know its pIC50. The compound in question is Cn1cc(C2=C(c3cn(CCCSC(=N)N)c4ccccc34)C(=O)NC2=O)c2ccccc21 [Ro-31-8220, reference compound]
*A* 6.34
